system: Streptococcus pneumoniae; assay: In vitro antibacterial activity against Streptococcus pneumoniae 5979; assay type: functional
MEASURE NAME: MIC

Report MIC for CC[C@H]1OC(=O)[C@@](C)(F)C(=O)[C@H](C)[C@@H](OC2O[C@H](C)C[C@H](N(C)C)[C@H]2O)[C@@](C)(OCC#Cc2cnc3ccccc3c2)C[C@@H](C)/C(=N\OC)[C@H](C)[C@H]2NC(=O)O[C@@]21C (some centres not stated) please. 0.125 µg/mL

Which measured MIC value corresponds to CC[C@H]1OC(=O)[C@H](C)C(=O)[C@H](C)[C@@H](OC2O[C@H](C)C[C@H](N(C)C)[C@H]2O)[C@@](C)(OCC#Cc2ccc3nccnc3c2)C[C@@H](C)/C(=N\OC)[C@H](C)[C@H]2NC(=O)O[C@@]21C (some centres not stated) ? 0.25 µg/mL

====

Field: MIC. Provide a value for each of the molecules that follow.
tested on: Streptococcus pneumoniae; assay: In vitro antibacterial activity against Streptococcus pneumoniae 5979; type: functional
// units = µg/mL; emit number, no label

Request body: readout MIC, system Streptococcus pneumoniae, query CC[C@H]1OC(=O)[C@H](C)C(=O)[C@H](C)[C@@H](OC2O[C@H](C)C[C@H](N(C)C)[C@H]2O)[C@@](C)(OCC#Cc2cnc3cccnc3c2)C[C@@H](C)/C(=N\OC)[C@H](C)[C@H]2NC(=O)O[C@@]21C (some centres undefined) . Return the value. 1

Value wanted: MIC (Streptococcus pneumoniae) of entry CC[C@H]1OC(=O)[C@H](C)C(=O)[C@H](C)[C@@H](OC2O[C@H](C)C[C@H](N(C)C)[C@H]2O)[C@@](C)(OCC#Cc2ccc(-c3ccccn3)s2)C[C@@H](C)/C(=N\OC)[C@H](C)[C@H]2NC(=O)O[C@@]21C (some centres undefined) 0.008

Observed MIC on Streptococcus pneumoniae for CC[C@H]1OC(=O)[C@H](C)C(=O)[C@H](C)[C@@H](OC2O[C@H](C)C[C@H](N(C)C)[C@H]2O)[C@@](C)(OCC#Cc2ccc(-c3nnn(C)n3)s2)C[C@@H](C)/C(=N\OC)[C@H](C)[C@H]2NC(=O)O[C@@]21C (some centres undefined) , please. 0.5

Hello, I am looking for reported MIC with Streptococcus pneumoniae for CC[C@H]1OC(=O)[C@@](C)(F)C(=O)[C@H](C)[C@@H](OC2O[C@H](C)C[C@H](N(C)C)[C@H]2O)[C@@](C)(OCC#Cc2ccc(-c3nnn(C)n3)s2)C[C@@H](C)/C(=N\OC)[C@H](C)[C@H]2NC(=O)O[C@@]21C (some centres undefined) . Could you help? 0.25

====

tested on: Staphylococcus aureus; experiment: In vitro antibacterial activity against Staphylococcus aureus 1775 strain; type: functional
MEASURE NAME: MIC (µg/mL)
Numeric answer only, unit µg/mL assumed.

Which MIC is listed for CC[C@H]1OC(=O)[C@@](C)(F)C(=O)[C@H](C)[C@@H](OC2O[C@H](C)C[C@H](N(C)C)[C@H]2O)[C@@](C)(OCC#Cc2cnc3ccccc3c2)C[C@@H](C)/C(=N\OC)[C@H](C)[C@H]2NC(=O)O[C@@]21C (some centres undefined) ? 64

So what's the measured MIC for this one? CC[C@H]1OC(=O)[C@H](C)C(=O)[C@H](C)[C@@H](OC2O[C@H](C)C[C@H](N(C)C)[C@H]2O)[C@@](C)(OCC#Cc2ccc(-c3nnn(C)n3)s2)C[C@@H](C)/C(=N\OC)[C@H](C)[C@H]2NC(=O)O[C@@]21C (some centres undefined) 128

# lookup: MIC of CC[C@H]1OC(=O)[C@H](C)C(=O)[C@H](C)[C@@H](OC2O[C@H](C)C[C@H](N(C)C)[C@H]2O)[C@@](C)(OCC#Cc2ccc(-c3ccccn3)s2)C[C@@H](C)/C(=N\OC)[C@H](C)[C@H]2NC(=O)O[C@@]21C (some centres undefined) 64

Please report the recorded MIC for CC[C@H]1OC(=O)[C@H](C)C(=O)[C@H](C)[C@@H](OC2O[C@H](C)C[C@H](N(C)C)[C@H]2O)[C@@](C)(OCC#Cc2cnc3ccccc3c2)C[C@@H](C)/C(=N\OC)[C@H](C)[C@H]2NC(=O)O[C@@]21C (some centres undefined) . 128

If you can, please state the reported MIC value of CC[C@H]1OC(=O)[C@@](C)(F)C(=O)[C@H](C)[C@@H](OC2O[C@H](C)C[C@H](N(C)C)[C@H]2O)[C@@](C)(OCC#Cc2ccc(-c3nnn(C)n3)s2)C[C@@H](C)/C(=N\OC)[C@H](C)[C@H]2NC(=O)O[C@@]21C (some centres undefined) . 64

====

system: Staphylococcus aureus; experiment: In vitro antibacterial activity against Staphylococcus aureus 1775 strain; type: functional
Give measured MIC for each item. Keep answers brief.

I am curious: what MIC value has been reported for CC[C@H]1OC(=O)[C@H](C)C(=O)[C@H](C)[C@@H](O[C@@H]2O[C@H](C)C[C@H](N(C)C)[C@H]2O)[C@](C)(OC)C[C@@H](C)C(=O)[C@H](C)[C@H]2N(CCCCn3cnc(-c4cccnc4)c3)C(=O)O[C@]12C ? > 100 µg/mL

# get_value(readout='MIC', item= CC[C@H]1OC(=O)[C@H](C)C(=O)[C@H](C)[C@@H](OC2O[C@H](C)C[C@H](N(C)C)[C@H]2O)[C@@](C)(OCC#Cc2cnc3cccnc3c2)C[C@@H](C)/C(=N\OC)[C@H](C)[C@H]2NC(=O)O[C@@]21C (some centres undefined) ) > 128 µg/mL

Item CC[C@H]1OC(=O)[C@H](C)C(=O)[C@H](C)[C@@H](OC2O[C@H](C)C[C@H](N(C)C)[C@H]2O)[C@@](C)(OCC#Cc2ccc3nccnc3c2)C[C@@H](C)/C(=N\OC)[C@H](C)[C@H]2NC(=O)O[C@@]21C (some centres undefined) has what recorded MIC? > 128 µg/mL

I have this compound here, CC[C@H]1OC(=O)[C@H](C)[C@@H](O[C@H]2C[C@@](C)(OC)[C@@H](O)[C@H](C)O2)[C@H](C)[C@@H](O[C@@H]2O[C@H](C)C[C@H](N(C)C)[C@H]2O)[C@](C)(O)C[C@@H](C)C(=O)[C@H](C)[C@@H](O)[C@]1(C)O , and I need its recorded MIC. > 128 µg/mL
